Exercise: state measured Population Normal (%) for each of the compounds provided.
- System: HEK-293T
- Test Method Notes: Multiplex assay against HEK293T
- Format: toxicity, cell-based
- Run Parameters: human, 12 h, 1 µM, compound concentration 1 uM, replicate 2
Your answer is read as %, so omit the unit and give the number.

Data point: CN[C@@H](C)C(=O)N[C@H](C(=O)N1CCC[C@H]1C(=O)Nc1snnc1-c1ccccc1)C1CCCCC1 ; Population Normal (%) = 92

Data point: CC(C)COc1ccc(CNC(=O)N(Cc2ccc(F)cc2)C2CCN(C)CC2)cc1 ; Population Normal (%) = 88

Data point: CC[C@@H](C)Nc1nc(C)nc2c(-c3ccc(OC)nc3C)c(C)nn12 ; Population Normal (%) = 91

Data point: NCCc1cn(S(=O)(=O)c2c(Cl)nc3sccn23)c2ccccc12.O=C(O)C(=O)O ; Population Normal (%) = 91

====

Exercise: state measured Population Normal (%) for each of the compounds provided.
- System: Fibroblast
- Test Method Notes: Multiplex assay against human fibroblast
- Assay type: toxicity, cell-based
- Run Parameters: 48 h, 10 µM, compound concentration 10 uM, replicate 1
Your answer is read as %, so omit the unit and give the number.

Data point: CC(C)c1noc(N2CCC(COc3ccc(-c4ccc(S(C)(=O)=O)cc4)nc3)CC2)n1 ; Population Normal (%) = 97

Data point: CCCCC(=O)N(Cc1ccc(-c2ccccc2-c2nnn[nH]2)cc1)[C@H](C(=O)O)C(C)C ; Population Normal (%) = 95

Data point: CCc1cc2cc(NS(=O)(=O)c3ccc(C#N)cc3)ccc2n(CC)c1=O ; Population Normal (%) = 98

Data point: CC(C)(C)c1cc(NC(=O)Nc2ccc(-c3cn4c(n3)sc3cc(OCCN5CCOCC5)ccc34)cc2)no1 ; Population Normal (%) = 92

Data point: O=C(NCCN1CCC(n2c(=O)[nH]c3cc(Cl)ccc32)CC1)c1ccc(F)cc1 [HALOPEMIDE] ; Population Normal (%) = 89

Data point: O=C(CCCc1ccccc1)Nc1nc2ccccc2c(=O)s1 ; Population Normal (%) = 97

Data point: CC[C@@H](C)Nc1nc(C)nc2c(-c3ccc(OC)nc3C)c(C)nn12 ; Population Normal (%) = 96

Data point: CCCCCC(O)/C=C/[C@H]1C(=O)CC(O)C1C/C=C\CCCC(=O)O (stereo partly drawn) ; Population Normal (%) = 95

Data point: CN[C@@H](C)C(=O)N[C@H](C(=O)N1CCC[C@H]1C(=O)Nc1snnc1-c1ccccc1)C1CCCCC1 ; Population Normal (%) = 93

Data point: O=C1[C@H](Cc2ccc(O)cc2)N2C(=O)CCN(C(=O)NCc3ccccc3)[C@H]2CN1Cc1cccc2ccccc12 ; Population Normal (%) = 84

Data point: C[C@H](N)COC(=O)[C@@H](CCCCN)NC(=O)Cc1c(-c2ccc3ccccc3c2)[nH]c2c1ccc1ccccc12 ; Population Normal (%) = 90

Data point: Cc1c(CC(=O)O)c2cccnc2n1Cc1ccc(S(C)(=O)=O)cc1C(F)(F)F ; Population Normal (%) = 97

Data point: COc1cccc2c1c(NS(=O)(=O)c1ccc(Cl)s1)nn2Cc1cccc(CNC(=O)C(C)(C)O)c1 ; Population Normal (%) = 94

Data point: CN(C)C(=O)Cn1cc(-c2ccc(-c3cncc4ccccc34)cc2)cn1 ; Population Normal (%) = 90

Data point: CC(C)COc1ccc(CNC(=O)N(Cc2ccc(F)cc2)C2CCN(C)CC2)cc1 ; Population Normal (%) = 87

Data point: Cl.N=C(N)NC(=O)Cc1c(Cl)cccc1Cl [GUANFACINE HYDROCHLORIDE] ; Population Normal (%) = 98

Data point: CC(=O)Nc1cccc2c1c(Sc1ccc(Cl)cc1)c(C)n2CC(=O)O ; Population Normal (%) = 95

Data point: Cl.NCCc1ccc(O)c(O)c1 [DOPAMINE HYDROCHLORIDE] ; Population Normal (%) = 95

Data point: COC[C@@H](c1ccc(C(F)(F)F)cc1)N1CCN(C2(C)CCN(C(=O)c3c(C)ncnc3C)CC2)C[C@@H]1C.O=C(O)/C=C\C(=O)O [VICRIVIROC MALEATE] ; Population Normal (%) = 85

Data point: CN1CCN(c2cc(-c3ccccc3)nc(N)n2)CC1 ; Population Normal (%) = 96

Data point: Cc1noc(-c2ccc(-c3ccc(CC(=O)O)cc3)cc2)c1NC(=O)O[C@H](C)c1ccccc1Cl ; Population Normal (%) = 95

Data point: Cc1cnc(-c2cc(N3CCN(C(=O)CCS(C)(=O)=O)CC3)ncc2Cl)c(C)c1 ; Population Normal (%) = 97

Data point: COc1ccccc1N1CCN(C[C@@H](C(=O)NC(C)(C)C)c2ccccc2)CC1.Cl.Cl ; Population Normal (%) = 85

Data point: Cc1onc(-c2ccccc2Cl)c1C(=O)N(C)c1ccc(Cl)cc1 ; Population Normal (%) = 95

Data point: CCCOc1ccc2[nH]cc(C3=CCNCC3)c2n1.Cl ; Population Normal (%) = 97

Data point: Br.CS(=O)(=O)Nc1c(O)ccc2c1CCCC2C1=NCCN1 (stereo not drawn) ; Population Normal (%) = 93

Data point: N#Cc1cc(F)cc(-c2nc(-c3ccc(F)cn3)no2)c1 ; Population Normal (%) = 92

Data point: NCCc1cn(S(=O)(=O)c2c(Cl)nc3sccn23)c2ccccc12.O=C(O)C(=O)O ; Population Normal (%) = 92

Data point: CC(/C=C1\SC(=S)N(CCCC(=O)Nc2ccc(C(=O)O)c(O)c2)C1=O)=C\c1ccccc1 ; Population Normal (%) = 100

Data point: Cc1sc2c(c1C)C(c1ccc(Cl)cc1)=N[C@@H](CC(=O)NCCCCCCCCNC(=O)COc1cccc3c1C(=O)N(C1CCC(=O)NC1=O)C3=O)c1nnc(C)n1-2 (stereo partly drawn) ; Population Normal (%) = 61

Data point: N#Cc1c(Oc2cccc(OS(=O)(=O)CCCC(F)(F)F)c2)cccc1C(F)(F)F ; Population Normal (%) = 90

Data point: Cc1cccc(NC(=O)CN2CCC(c3ccccn3)CC2)c1.Cl.Cl ; Population Normal (%) = 92

Data point: CCCCC1=NC2(CCCC2)C(=O)N1Cc1ccc(-c2ccccc2-c2nnn[nH]2)cc1 ; Population Normal (%) = 97
